target: FPR2 (Homo sapiens, UniProt P25090); assay: Change in calcium activity by peptide (Fura-2) in RBL cells overexpressing FPR2; details: calcium activity (Fura-2), graded per Table 3, read-out: EC50 for [Ca^2+] FPR2
Sequence (P25090 whole entry, species assumed): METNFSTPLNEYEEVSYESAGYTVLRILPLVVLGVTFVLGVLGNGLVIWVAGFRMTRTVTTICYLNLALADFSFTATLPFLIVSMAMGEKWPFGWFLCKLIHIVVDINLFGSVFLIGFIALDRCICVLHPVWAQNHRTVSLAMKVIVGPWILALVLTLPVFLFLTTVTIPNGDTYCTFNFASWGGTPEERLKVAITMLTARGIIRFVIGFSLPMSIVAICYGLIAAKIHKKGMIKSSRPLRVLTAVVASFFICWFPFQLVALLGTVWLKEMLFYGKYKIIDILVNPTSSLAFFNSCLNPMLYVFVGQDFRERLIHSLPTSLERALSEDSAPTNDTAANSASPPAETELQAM
Peptide text beside a SMILES is read from it.
READOUT_KIND: EC50

COMPOUND | READOUT_KIND | RESULT
CSCC[C@H](NC(=O)[C@H](Cc1c[nH]cn1)NC(C)=O)C(=O)N[C@@H](CCCCN)C(=O)N[C@@H](Cc1ccc(O)cc1)C(=O)N[C@@H](CCCCN)C(=O)N[C@H](C(=O)N[C@H](CCSC)C(N)=O)C(C)C [Peptide 22] (HELM PEPTIDE1{[ac].H.M.K.Y.K.V.[dM].[am]}$$$$V2.0) | EC50 | < 10 nM
CSCC[C@H](NC(=O)[C@H](CCCNC(=N)N)NC(C)=O)C(=O)N[C@@H](CCCNC(=N)N)C(=O)N[C@@H](Cc1ccc(O)cc1)C(=O)N[C@@H](CCCCN)C(=O)N[C@H](C(=O)N[C@H](CCSC)C(N)=O)C(C)C [Peptide 6] (HELM PEPTIDE1{[ac].R.M.R.Y.K.V.[dM].[am]}$$$$V2.0) | EC50 | < 10 nM
CCCCCCCC(=O)N[C@@H](CCCNC(=N)N)C(=O)N[C@@H](Cc1c[nH]c2ccccc12)C(=O)N[C@@H](CCCNC(=N)N)C(=O)N[C@@H](Cc1ccc(O)cc1)C(=O)N[C@@H](CCCCN)C(=O)N[C@@H](Cc1ccc(O)cc1)C(=O)N[C@H](CCSC)C(N)=O [Peptide 34] (HELM PEPTIDE1{[CCCCCCCC(=O)[*:2]].R.W.R.Y.K.Y.[dM].[am]}$$$$V2.0) | EC50 | 11 to 100 nM
CSCC[C@H](NC(=O)[C@@H]1CCCN1)C(=O)N[C@@H](CCCNC(=N)N)C(=O)N[C@@H](Cc1ccc(O)cc1)C(=O)N[C@@H](CCCCN)C(=O)N[C@@H](Cc1ccc(O)cc1)C(=O)N[C@H](CCSC)C(N)=O [Peptide 46] (HELM PEPTIDE1{P.M.R.Y.K.Y.[dM].[am]}$$$$V2.0) | EC50 | < 10 nM
CSCC[C@@H](NC(=O)[C@@H](NC(=O)[C@H](Cc1ccc(O)cc1)NC(=O)[C@H](Cc1ccc(O)cc1)NC(=O)[C@H](CCCNC(=N)N)NC(=O)[C@H](Cc1c[nH]c2ccccc12)NC(=O)[C@@H](N)CCCNC(=N)N)C(C)C)C(N)=O [Peptide 94] (HELM PEPTIDE1{R.W.R.Y.Y.V.[dM].[am]}$$$$V2.0) | EC50 | < 10 nM
CSCC[C@H](N)C(=O)N[C@@H](CCCNC(=N)N)C(=O)N[C@@H](Cc1ccc(O)cc1)C(=O)N[C@@H](CCCCN)C(=O)N1CCC[C@H]1C(=O)N[C@H](CCSC)C(N)=O [Peptide 54] (HELM PEPTIDE1{M.R.Y.K.P.[dM].[am]}$$$$V2.0) | EC50 | < 10 nM

Which EC50 reading was recorded for the compound CSCC[C@@H](NC(=O)[C@@H]1CCCN1C(=O)[C@H](CCCCN)NC(=O)[C@H](Cc1ccc(O)cc1)NC(=O)[C@H](CCCCN)NC(=O)[C@@H](N)Cc1c[nH]cn1)C(N)=O [Peptide 146] (HELM PEPTIDE1{H.K.Y.K.P.[dM].[am]}$$$$V2.0) ?
< 10 nM
